test system: Mus musculus; experiment: Antiinflammatory activity in mouse assessed as inhibition of TPA-induced mouse ear edema at 500 ug/ear administered 30 mins before TPA challenge measured after 7 hrs relative to untreated control; assay type: functional, organism-based
Active and inactive are the calls of the source. The calls are words filed in the database; no cut-off is given here.
Outcome codes: active, inactive

- compound: "CC(=O)O"
  label-class: "inactive"
- compound: "CCCCCCCC/C=C\\CCCCCCCC(=O)Oc1cccc2c1C(=O)C=CC2=O"
  label-class: "active"
- compound: "CCCCCCCCCCCC(=O)Oc1cccc2c1C(=O)C=CC2=O"
  label-class: "active"
- compound: "CCCCCCCCCCCCCCCCCC(=O)O"
  label-class: "inactive"
- compound: "CC/C=C\\C/C=C\\C/C=C\\C/C=C\\C/C=C\\C/C=C\\CCC(=O)Oc1cccc2c1C(=O)C=CC2=O"
  label-class: "active"
- compound: "CC/C=C\\C/C=C\\C/C=C\\C/C=C\\C/C=C\\C/C=C\\CCC(=O)O"
  label-class: "inactive"
- compound: "CCCCCC(=O)O [HEXANOATE]"
  label-class: "inactive"
- compound: "CC/C=C\\C/C=C\\C/C=C\\C/C=C\\C/C=C\\CCCC(=O)O"
  label-class: "inactive"
- compound: "O=C1C=CC(=O)c2c(O)cccc21"
  label-class: "active"
- compound: "CCCCCCCCCCCCCCCCCC(=O)Oc1cccc2c1C(=O)C=CC2=O"
  label-class: "active"
- compound: "CCCCCC(=O)Oc1cccc2c1C(=O)C=CC2=O"
  label-class: "active"
- compound: "CCCCCCCCCCCC(=O)O [DODECANOATE]"
  label-class: "inactive"
- compound: "CC/C=C\\C/C=C\\C/C=C\\CCCCCCCC(=O)Oc1cccc2c1C(=O)C=CC2=O"
  label-class: "active"
- compound: "CCCCC/C=C\\C/C=C\\CCCCCCCC(=O)O"
  label-class: "inactive"
- compound: "CC(=O)Oc1cccc2c1C(=O)C=CC2=O"
  label-class: "active"
- compound: "CCCCC/C=C\\C/C=C\\CCCCCCCC(=O)Oc1cccc2c1C(=O)C=CC2=O"
  label-class: "active"
- compound: "CCC(=O)O"
  label-class: "inactive"
- compound: "CCC(=O)Oc1cccc2c1C(=O)C=CC2=O"
  label-class: "active"
- compound: "CC/C=C\\C/C=C\\C/C=C\\C/C=C\\C/C=C\\CCCC(=O)Oc1cccc2c1C(=O)C=CC2=O"
  label-class: "active"
- compound: "CC/C=C\\C/C=C\\C/C=C\\CCCCCCCC(=O)O"
  label-class: "inactive"
- compound: "CCCCCCCC/C=C\\CCCCCCCC(=O)O"
  label-class: "inactive"

Provenance of the data: ChEMBL document CHEMBL1914406
